Values from ChEMBL document CHEMBL1132499

target: Tyrosine-protein kinase Lck (Homo sapiens)
Sequence (P06239 whole entry): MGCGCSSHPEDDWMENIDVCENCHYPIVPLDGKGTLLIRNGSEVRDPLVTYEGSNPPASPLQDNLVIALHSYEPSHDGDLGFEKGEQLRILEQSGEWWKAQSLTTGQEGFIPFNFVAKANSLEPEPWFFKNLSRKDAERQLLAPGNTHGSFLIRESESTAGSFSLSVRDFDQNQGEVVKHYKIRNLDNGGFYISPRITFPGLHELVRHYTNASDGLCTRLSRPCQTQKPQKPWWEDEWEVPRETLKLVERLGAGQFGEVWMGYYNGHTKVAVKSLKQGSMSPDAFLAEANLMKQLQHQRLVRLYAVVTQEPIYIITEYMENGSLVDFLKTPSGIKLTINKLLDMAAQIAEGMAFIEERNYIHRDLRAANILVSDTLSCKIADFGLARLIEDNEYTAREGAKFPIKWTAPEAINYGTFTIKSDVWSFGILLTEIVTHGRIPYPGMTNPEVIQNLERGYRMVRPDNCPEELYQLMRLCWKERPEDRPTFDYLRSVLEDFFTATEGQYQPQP
Readings of Kd for the listed compounds
Number only, in µM; omit the unit.

O=P(O)(O)Cc1cccc2ccccc12 :: 1000

Query the reported Kd for Tyrosine-protein kinase Lck (Homo sapiens); item: O=P(O)(O)Oc1ccccc1 [PHENYL DIHYDROGEN PHOSPHATE]
300

Query the reported Kd for Tyrosine-protein kinase Lck (Homo sapiens); item: NC(Cc1ccc(OP(=O)(O)O)cc1)C(=O)O (stereo unspecified)
400

Query the reported Kd for Tyrosine-protein kinase Lck (Homo sapiens); item: Cc1ccccc1CP(=O)(O)O
1000

Query the reported Kd for Tyrosine-protein kinase Lck (Homo sapiens); item: Cc1nccn1C(=O)c1ccccc1C(=O)O
1600

Query the reported Kd for Tyrosine-protein kinase Lck (Homo sapiens); item: O=P(O)(O)Cc1ccccc1
5900

Query the reported Kd for Tyrosine-protein kinase Lck (Homo sapiens); item: O=P(O)(O)Oc1cccc2ccccc12
200

Query the reported Kd for Tyrosine-protein kinase Lck (Homo sapiens); item: CCCN(CCC)C(=O)c1ccccc1C(=O)O
1700

Query the reported Kd for Tyrosine-protein kinase Lck (Homo sapiens); item: O=C(O)c1ccccc1C(=O)O
1700

Query the reported Kd for Tyrosine-protein kinase Lck (Homo sapiens); item: O=P(O)(O)c1cccc2ccccc12
1500
